// provenance: PubChem BioAssay AID1745850

- Protocol Description: Viability Counterscreen for Confirmatory qHTS for Inhibitors of ATXN expression; also: nearly all actives have a fitted effect of over 50% in size
- Measurement Parameters: HEK-293 ATXN2-luc cells viability, CellTiter-Fluor, 24 h
Among all 2,100 compounds or so, about 260 (12%) were called active. Roughly 58% stayed inconclusive and do not appear here. Calls follow the shape of the dose curve; as a rule, active = well fitted cell-killing curve with a large enough effect; inconclusive = small, poorly fitted or top-dose-only effect, or effect the other way; inactive = flat fitted curve, though single readings scatter. The list shows a part of the results.
Return exactly one item of T (active), F (inactive)

1) C=CCN1C=CC(=O)[C@@H](OC(=O)Nc2ccc(Br)cc2)[C@H]1c1ccccc1Br    F

Let us examine a further case.
What call does the record list for COc1ccc(-c2n(CC(=O)OC3CC(C)CCC3C(C)C)c3ccccc3[n+]2C)cc1 (stereo not drawn) ?
T
